Values compiled from PubChem BioAssay.

I'd appreciate it if you could supply viability values for the items below.
EXPERIMENT_SUMMARY: drug combination growth inhibition, ovarian cancer – cell-based, oncology-focused library, rucaparib conditional, profiling panel (AID 1508598)
ASSAY_CONTEXT: patient-derived ovarian cancer cells, CellTiter-Glo viability, 144 h; at 0.313 µM; OCI-P5x cells; without rucaparib; stronger effect = lower value
Numeric answer only, unit % assumed.

If you can, please state the reported viability value of CC1COC2(CCN(c3nc(=O)c4cc(C(F)(F)F)cc([N+](=O)[O-])c4s3)CC2)O1 (stereo not drawn) .
108

If you can, please state the reported viability value of CC(C)Oc1ccc(C(=O)N[C@H](CNC(=O)CN(C)C)Cc2ccc(-c3cn4cccc([C@H](C)O)c4n3)cc2)cc1Cl .
28.3

If you can, please state the reported viability value of COc1cc(Nc2nc3ccccc3nc2NS(=O)(=O)c2ccc(NC(=O)c3ccc(C)c(OC)c3)cc2)cc(OC)c1 .
104

----------
I'd appreciate it if you could supply cell count values for the items below.
EXPERIMENT_SUMMARY: viability loss with induced miR-34 in A549 – imaging, A549 dox-inducible miR-34, nuclei and caspase counts, primary screen (AID 1347080)
ASSAY_CONTEXT: A549 miR-34 inducible, Hoechst nuclei count, 48 h; measured here: total cells without miR-34 induction
Kindly provide the number alone.

If you can, please state the reported cell count value of CCOc1c2c(c(OCC)c3ccccc13)C(=O)N(c1ccc(CC(=O)NS(=O)(=O)c3ccccc3)cc1)C2 .
6100

If you can, please state the reported cell count value of CCCCCCCCCCCCCCCCSC[C@H](COP(=O)([O-])OCC[N+](C)(C)C)NC(=O)CCCCCCCCCCCCCCC .
6010

If you can, please state the reported cell count value of CCCCCCCC/C=C\CCCCCCCCCCCC(N)=O .
5820

----------
EXPERIMENT_SUMMARY: growth inhibition of DIPG cells – cell-based, MIPE4.0 library, CellTiter-Glo luminescence, qHTS (AID 1347066);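 note: cells exposed to compound for 48 hours before readout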
ASSAY_CONTEXT: SU-DIPG-VI viability, CellTiter-Glo ATP luminescence
Inconclusive results are not listed. Active and inactive are the calls of the source. No cut-off is given here; in the data, nearly all actives have AC50 up to about 30 µM.
Field 'call' accepts active, inactive

Status in this test for CN1CC(=O)NC1=NC(=O)Nc1cccc(Cl)c1 ?
active

Status in this test for O=c1c(O)c(-c2cc(O)c(O)c(O)c2)oc2cc(O)cc(O)c12 ?
inactive

Status in this test for N#CC[C@H](C1CCCC1)n1cc(-c2ncnc3[nH]ccc23)cn1 ?
inactive

Status in this test for Cc1ccc([N+](=O)[O-])cc1S(=O)(=O)N(C)/N=C/c1cnc2ccc(Br)cn12 ?
active

Status in this test for O=C(NCCS(=O)(=O)c1ccc(C(F)(F)F)cn1)c1ccc(Cl)cc1 ?
inactive

Status in this test for Cc1cc(Nc2ncnc3ccc(-c4ccc(CNCCS(C)(=O)=O)o4)cc23)ccc1Oc1ccn2ncnc2c1 ?
active

Status in this test for Cn1cnc(=N)c2[nH]cnc21 ?
active

Status in this test for CC1=C(CO)C(=O)O[C@@H]([C@@H](C)[C@H]2CC[C@H]3[C@@H]4C[C@H]5O[C@]56[C@@H](O)C=CC(=O)[C@]6(C)[C@H]4CC[C@]23C)C1 ?
active

----------
EXPERIMENT_SUMMARY: viability loss with induced miR-34 in A549 – imaging, A549 dox-inducible miR-34, nuclei and caspase counts, primary screen (AID 1347080)
ASSAY_CONTEXT: A549 miR-34 inducible, Hoechst nuclei count, 48 h; measured here: total cells with miR-34 induction; stronger effect = lower value
I'd appreciate it if you could supply cell count values for the items below.
Kindly provide the number alone.

If you can, please state the reported cell count value of Cc1nc2ccc(NC(=O)Nc3ccnc4cccnc34)cc2o1 .
7250

If you can, please state the reported cell count value of O=C(CCCc1ccc(-c2ccccc2F)cc1)Nc1ccc(O)cc1 .
2340

If you can, please state the reported cell count value of CCCCCCCCCCCCCCCCCC(=O)OCC .
5760

If you can, please state the reported cell count value of CCCCCCC(=O)SC[C@H](COP(=O)([O-])OCC[N+](C)(C)C)SC(=O)CCCCCC .
5570

If you can, please state the reported cell count value of CCCNC(=O)N1N=C(c2ccc(N)cc2)c2cc3c(cc2C1C)OCO3 (configuration not stated) .
8160

If you can, please state the reported cell count value of COc1cc2nccc(Oc3ccc(NC(=O)NC4CC4)c(Cl)c3)c2cc1C(N)=O .
5580

If you can, please state the reported cell count value of O=C(Cc1ccc(-c2ccc(OCCN3CCOCC3)cc2)cn1)NCc1ccccc1 .
1530

If you can, please state the reported cell count value of O=C1C(c2ccccn2)=[N+]([O-])c2ccccc21 .
8260

If you can, please state the reported cell count value of COC(=O)c1sccc1S(=O)(=O)Nc1ccc(Nc2ccccc2)cc1OC .
6450

If you can, please state the reported cell count value of Cc1c(C2CCN(CCc3ccccc3)CC2)noc1-c1ccc(Cl)cc1 .
6770

If you can, please state the reported cell count value of CN(CC[C@@H](Oc1ccc(-c2ccccc2)cc1)c1ccc(F)cc1)CC(=O)O .
7970

If you can, please state the reported cell count value of CC(C)CCOc1ccc(N)cc1 .
3780

If you can, please state the reported cell count value of COc1c(C)cnc(Cn2cnc3c(Cl)nc(N)nc32)c1C .
1950

If you can, please state the reported cell count value of CCCCC[C@@H](O)/C=C/[C@H]1[C@H](O)CC(=O)[C@@H]1C/C=C\CCCC(=O)O .
6000

If you can, please state the reported cell count value of Cn1ccc2cc(NC(=O)Nc3cccnc3)ccc21 .
8400

If you can, please state the reported cell count value of COc1[nH]c2ccc(F)cc2c1C(=O)OCC1CCN(CCNS(C)(=O)=O)CC1 .
8220

If you can, please state the reported cell count value of [C-]#[N+]c1cc(-c2ccncc2)c(C)[nH]c1=O .
5870
